Test method notes: Inhibition of SMS (unknown origin)
Parameters: species or system Homo sapiens

[
  {
    "Molecule": "S=C(S)OC1C[C@H]2C[C@@H]1[C@H]1CCC[C@@H]21 (stereo partly specified)",
    "IC50": "> 100 µM"
  }
]

* * *

Test method notes: AUC (0 to 24 hrs) in KK-AY/Ta mouse at 100 mg/kg, sc
Format: ADME, organism-based
Parameters: time < 24 hr, dose 100 mg/kg, route subcutaneous
Measurement setup: in vivo
Outcome measure: AUC(0-t) at 24 h (ng·h/mL)

[
  {
    "Query smiles": "COc1cc(CN(C)C(=O)c2c(OCCCC3CCN(C(=O)OC4(C)CC4)CC3)c3cccnc3n(C)c2=O)cc(C(F)(F)F)c1",
    "Outcome measure": "AUC(0-t) at 24 h",
    "Readout units": "ng·h/mL",
    "Experimental value": 12000
  }
]

* * *

Known Papp of a selection of compounds
Test method notes: Permeability of compound in buffer solution at pH 7.4 by PAMPA method
Assay type: ADME
Measurement setup: read-out: permeability

[
  {
    "Query smiles": "COc1cc(CN(C)C(=O)c2c(OCCCC3CCN(C(=O)OC(C)(C)C)CC3)c3ccccc3n(C)c2=O)cc(OC)c1",
    "Papp / ×10⁻⁶ cm/s": 29.5
  },
  {
    "Query smiles": "COc1cc(CN(C)C(=O)c2c(OCCCC3CCN(C(=O)OC4(C)CC4)CC3)c3cccnc3n(C)c2=O)cc(OC)c1",
    "Papp / ×10⁻⁶ cm/s": 20
  },
  {
    "Query smiles": "COc1cc(CN(C)C(=O)c2c(OCCCC3CCN(C(=O)OC(C)(C)C)CC3)c3cccnc3n(C)c2=O)cc(OC)c1",
    "Papp / ×10⁻⁶ cm/s": 24.1
  }
]

* * *

Target system: Phosphatidylcholine:ceramide cholinephosphotransferase 2 (Mus musculus, UniProt Q9D4B1)
Sequence (Q9D4B1 whole entry): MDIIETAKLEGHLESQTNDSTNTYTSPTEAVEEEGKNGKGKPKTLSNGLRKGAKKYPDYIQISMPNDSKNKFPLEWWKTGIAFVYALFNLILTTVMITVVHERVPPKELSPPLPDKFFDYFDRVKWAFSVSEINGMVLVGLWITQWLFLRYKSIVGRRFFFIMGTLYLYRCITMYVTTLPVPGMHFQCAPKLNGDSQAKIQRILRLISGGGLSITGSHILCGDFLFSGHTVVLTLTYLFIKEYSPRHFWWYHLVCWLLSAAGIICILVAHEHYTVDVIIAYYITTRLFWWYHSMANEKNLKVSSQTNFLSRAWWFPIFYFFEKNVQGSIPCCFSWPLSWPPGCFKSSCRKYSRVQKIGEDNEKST
Test method notes: Inhibition of mouse recombinant C-terminal FLAG-tagged SMS2 expressed in mammalian expression system using C14-phosphatidylcholineD72 and C17-ceramide pre-incubated for 60 mins followed by incubation with substrate for 30 mins measured by RapidFire/MS assay
pIC50: −log10 of the molar value.

[
  {
    "Compound": "CN(Cc1cc(C(F)(F)F)cc(C(F)(F)F)c1)C(=O)c1c(N2CCCC2)c2ccccc2n(C)c1=O",
    "pIC50": 5.96
  },
  {
    "Compound": "CN(Cc1cc(C(F)(F)F)cc(C(F)(F)F)c1)C(=O)c1c(OCCCC2CCN(C(=O)OC3(C)CC3)CC2)c2cccnc2n(C)c1=O",
    "pIC50": 8.52
  },
  {
    "Compound": "CN(Cc1cc(C(F)(F)F)cc(C(F)(F)F)c1)C(=O)c1c(OCCOCc2ccccc2)c2ccccc2n(C)c1=O",
    "pIC50": 6.23
  },
  {
    "Compound": "CCOc1cc(CN(C)C(=O)c2c(OCCCC3CCN(C(=O)OC(C)(C)C)CC3)c3ccccc3n(C)c2=O)cc(OCC)c1",
    "pIC50": 7.29
  },
  {
    "Compound": "CN(Cc1cc(C(F)(F)F)cc(C(F)(F)F)c1)C(=O)c1c(OCCCC(F)(F)F)c2ccccc2n(C)c1=O",
    "pIC50": 6.62
  },
  {
    "Compound": "COc1cc(CN(C)C(=O)c2c(OCCCC3CCN(C(=O)OC(C)(C)C)CC3)c3cnccc3n(C)c2=O)cc(OC)c1",
    "pIC50": 6.47
  },
  {
    "Compound": "CN(Cc1cc(C(F)(F)F)cc(C(F)(F)F)c1)C(=O)c1c(OCCCC2CCN(C(=O)OC(C)(C)C)CC2)c2ccccc2n(C)c1=O",
    "pIC50": 8.11
  },
  {
    "Compound": "CN(Cc1cc(C(F)(F)F)cc(C(F)(F)F)c1)C(=O)c1c(OCCCC2CCCCC2)c2ccccc2n(C)c1=O",
    "pIC50": 6.72
  },
  {
    "Compound": "CN(Cc1cc(C(F)(F)F)cc(C(F)(F)F)c1)C(=O)c1c(N2CCC(OCc3ccccc3)C2)c2ccccc2n(C)c1=O (centres undefined)",
    "pIC50": 6.18
  }
]
